Cited source for all entries: ChEMBL document CHEMBL4196183

# fold change (FC) listing for each entry below
# Tested Target: UniProtKB Q9UKP6
# Test Details: Bias factor, ratio of deltalog(Tau/KA) for agonist activity at human UT receptor expressed in HEK293 cells co-expressing G12-polycistronic BRET biosensor assessed as induction of G12 activation by luminescence detection based BRET assay to deltalog(Tau/KA) for agonist activity at human UT receptor expressed in HEK293 cells co-expressing beta-arrestin1-polycistronic BRET biosensor assessed as induction of beta-arrestin1 recruitment by luminescence detection based BRET assay
# Assay type: functional, cell-based
Reported Endpoint: fold change (FC)

| Line Notation | Reported Endpoint | Value Measured |
| --- | --- | --- |
| CC(C)[C@H](NC(=O)[C@@H]1CSSC[C@H](NC(=O)[C@H](C)N)C(=O)N[C@@H](Cc2ccc(-c3ccccc3)cc2)C(=O)N[C@@H](Cc2c[nH]c3ccccc23)C(=O)N[C@@H](CCCCN)C(=O)N[C@@H](Cc2ccc(O)cc2)C(=O)N1)C(=O)O | fold change (FC) | 3.9 |
| CC(C)[C@H](NC(=O)[C@@H]1CSSC[C@H](NC(=O)[C@H](C)N)C(=O)N[C@@H](Cc2ccc(C#Cc3ccccc3)cc2)C(=O)N[C@@H](Cc2c[nH]c3ccccc23)C(=O)N[C@@H](CCCCN)C(=O)N[C@@H](Cc2ccc(O)cc2)C(=O)N1)C(=O)O | fold change (FC) | 1.6 |
| CC(C)[C@H](NC(=O)[C@@H]1CSSC[C@H](NC(=O)[C@@H](N)CC(=O)O)C(=O)N[C@@H](Cc2ccc(I)cc2)C(=O)N[C@@H](Cc2c[nH]c3ccccc23)C(=O)N[C@@H](CCCCN)C(=O)N[C@@H](Cc2ccc(O)cc2)C(=O)N1)C(=O)O | fold change (FC) | 1.3 |
| CC(C)[C@H](NC(=O)[C@@H]1CSSC[C@H](NC(=O)[C@@H](C)N)C(=O)N[C@@H](Cc2ccc(C#Cc3ccccc3)cc2)C(=O)N[C@@H](Cc2c[nH]c3ccccc23)C(=O)N[C@@H](CCCCN)C(=O)N[C@@H](Cc2ccc(O)cc2)C(=O)N1)C(=O)O | fold change (FC) | 5.6 |
| CC(C)[C@H](NC(=O)[C@@H]1CSSC[C@H](NC(=O)[C@H](N)CC(=O)O)C(=O)N[C@@H](Cc2ccc(I)cc2)C(=O)N[C@@H](Cc2c[nH]c3ccccc23)C(=O)N[C@@H](CCCCN)C(=O)N[C@@H](Cc2ccc(O)cc2)C(=O)N1)C(=O)O | fold change (FC) | 0.8 |

----------
# Tested Target: Urotensin-2 receptor (Homo sapiens) (UniProt Q9UKP6)
# Sequence (Q9UKP6 whole entry): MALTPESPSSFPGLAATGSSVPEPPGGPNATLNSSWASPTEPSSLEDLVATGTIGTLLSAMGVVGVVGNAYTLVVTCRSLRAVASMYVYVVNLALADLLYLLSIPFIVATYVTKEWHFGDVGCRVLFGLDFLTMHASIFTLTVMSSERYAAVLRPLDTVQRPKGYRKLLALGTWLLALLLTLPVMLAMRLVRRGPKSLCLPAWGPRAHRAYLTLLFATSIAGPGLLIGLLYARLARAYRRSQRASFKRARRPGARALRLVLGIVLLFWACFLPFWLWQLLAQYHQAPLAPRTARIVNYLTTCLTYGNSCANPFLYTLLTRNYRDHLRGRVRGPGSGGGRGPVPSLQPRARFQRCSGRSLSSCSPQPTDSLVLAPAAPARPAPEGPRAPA
# Test Details: Agonist activity at human UT receptor expressed in HEK293 cells co-expressing G12-polycistronic BRET biosensor assessed as induction of G12 activation measured for 5 mins by luminescence detection based BRET assay relative to 10 uM URP
# Assay type: functional, cell-based

| Line Notation | Emax / % |
| --- | --- |
| CC(C)[C@H](NC(=O)[C@@H]1CSSC[C@H](NC(=O)[C@@H](N)CC(=O)O)C(=O)N[C@@H](Cc2ccc(I)cc2)C(=O)N[C@@H](Cc2c[nH]c3ccccc23)C(=O)N[C@@H](CCCCN)C(=O)N[C@@H](Cc2ccc(O)cc2)C(=O)N1)C(=O)O | 94 |
| CC(C)[C@H](NC(=O)[C@@H]1CSSC[C@H](NC(=O)[C@@H](C)N)C(=O)N[C@@H](Cc2ccc(-c3ccccc3)cc2)C(=O)N[C@@H](Cc2c[nH]c3ccccc23)C(=O)N[C@@H](CCCCN)C(=O)N[C@@H](Cc2ccc(O)cc2)C(=O)N1)C(=O)O | 74 |
| CC(C)[C@H](NC(=O)[C@@H]1CSSC[C@H](NC(=O)[C@@H](C)N)C(=O)N[C@@H](Cc2ccc(C#Cc3ccccc3)cc2)C(=O)N[C@@H](Cc2c[nH]c3ccccc23)C(=O)N[C@@H](CCCCN)C(=O)N[C@@H](Cc2ccc(O)cc2)C(=O)N1)C(=O)O | 72 |
| CC(C)[C@H](NC(=O)[C@@H]1CSSC[C@H](NC(=O)[C@@H](C)N)C(=O)N[C@@H](Cc2ccc(I)cc2)C(=O)N[C@@H](Cc2c[nH]c3ccccc23)C(=O)N[C@@H](CCCCN)C(=O)N[C@@H](Cc2ccc(O)cc2)C(=O)N1)C(=O)O | 68 |
